// data source = patent US20220274927A1

As shown below, each of these compounds has a reported MIC value.
- System: methicillin-resistant S. aureus (FPR3757)
- assay name: MIC against clinical MRSA strain FPR3757 in Mueller-Hinton broth (CLSI)
- Type: cell-based, Staphylococcus aureus
- condition info: Staphylococcus aureus, MRSA, MRSA clinical strain FPR3757, Mueller-Hinton broth, CLSI guidelines, complete inhibition of observable growth; read-out: MIC

Looking up O=c1cc(C(F)(F)F)[nH]c2cc(C(F)(F)F)cc(Nc3cccc4[nH]ncc34)c12 , I found its MIC recorded as 1 to 2 µg/mL

Value of measured MIC for the entry FC(F)(F)c1ccc2c(Nc3cccc(N4CCOCC4)c3)cc(C(F)(F)F)nc2c1 : > 16 µg/mL

Lab note: measured MIC of O=c1cc(C(F)(F)F)[nH]c2c(C(F)(F)F)cccc12 was 2 to 4 µg/mL

Consider FC(F)(F)c1cccc(Nc2cc(C(F)(F)F)nc3c(C(F)(F)F)cccc23)c1 . Its measured MIC is 1 µg/mL
